- System: surinam grass
- procedure_text: Test B pre/postemergence surinam grass
- Type: in vivo, Brachiaria decumbens
- conditions: Preemergence, Rate 62 g/ha; scale of 0 to 10 where 0 is no effect and 10 is complete control
For each entry below, report its B. signalgrass plant response rating value.
Give bare numbers.

Examples from the recorded data:
molecule=COCCOCn1c(=O)on(C(=O)N(c2ccc(F)cc2)C(C)C)c1=O reading=0
molecule=Cc1cc(C)c(-n2c(=O)on(C(=O)N(c3ccc(F)cc3)C(C)C)c2=O)c(Br)c1 reading=0

Give me B. signalgrass plant response rating for each of these molecules, listed below.
1. CCn1ncc(Cn2c(=O)on(C(=O)N(c3ccc(Cl)cc3)C(C)C)c2=O)c1Cl
2. CC(C)N(C(=O)n1oc(=O)n(C2CC2)c1=O)c1ccccc1
3. CC[C@@H](C)n1c(=O)on(C(=O)N(c2ccc(F)cc2F)C(C)C)c1=O
4. CC1CCCCC1n1c(=O)on(C(=O)N(c2ccc(F)cc2)C(C)C)c1=O (stereo not shown)
5. CC(C)N(C(=O)n1oc(=O)n(-c2nc(Cl)sc2Cl)c1=O)c1ccc(F)cc1

Result:
1. 0
2. 4
3. 3
4. 0
5. 0
